target entity: T1, Peptide-2 (human, phosphothreonine 212, phosphothreonine 217 (tau 2N4R numbering); short chain biotin (SCBiot) and dPEG4 at the N-terminus; amide at the C-terminus)
T1 construct: also called pT212/pT217-tau peptide (Peptide-2)
T1 sequence (peptide, as listed by the source): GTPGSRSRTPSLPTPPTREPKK
method: SPR ProteOn, mAb captured, peptide as analyte; range of n=2; upper end of n=2 range
observation type: koff (s⁻¹)
Give the value in s⁻¹ but do not write s⁻¹ after it.

Item under review: B235 (antibody, human IgG1, V domains shown, Humanized (HFA) PT3 variant, human IgG1/kappa; also called VH91/VL77) VH: EVQLLESGGGLVQPGGSLRLSCAASGFTFSSYAMSWVRQAPGKGLEWVSSISKGGNTYYADSVKGRFTISRDNSKNTLYLQMNSLRAEDTAVYYCAKGWGDYGWFAYWGQVTLVTVSS VL: DIQMTQSPSSLSASVGDRVTITCKASQDINRYLNWFQQKPGKAPKSLIYRANRLLDGVPSRFSGSGSGTDFTLTISSLQPEDFATYYCLQYDEFPLTFGQGTKLEIK . Reported koff?
0.0061

Cited source for all entries: patent US20230047413A1
